Listing of recorded half-life by entry.
experiment: in vitro; details: human, s9
Give the quantity in h, number only.

Query :: Look at this molecule and give its reported half-life. C/C(=C\c1csc(C)n1)[C@@H]1C/C=C(/C(F)(F)F)C/C=C/[C@H](C)[C@H](O)[C@@H](C)C(=O)C(C)(C)[C@@H](O)CC(=O)O1 [Compound 29]
Result :: 10.5

Query :: Same again, this time with C/C1=C/CC(/C(C)=C/c2csc(C)n2)OC(=O)C[C@H](O)C(C)(C)C(=O)[C@H](C)[C@@H](O)[C@@H](C)CCC1 (stereo partly shown) [Compound 1, 12,13-desoxyepothilone B, reference compound]
Result :: 1

Query :: Same again, this time with C/C(=C\c1csc(C)n1)[C@@H]1C[C@@H]2O[C@]2(C)CCC[C@H](C)[C@H](O)[C@@H](C)C(=O)C(C)(C)[C@@H](O)CC(=O)O1 [Compound 51, Epothilone B, reference compound]
Result :: 15.8

Query :: Same again, this time with C/C(=C\c1csc(C)n1)[C@@H]1C/C=C(/C(F)(F)F)CCC[C@H](C)[C@H](O)[C@@H](C)C(=O)C(C)(C)[C@@H](O)CC(=O)O1 [Compound 2, 26-trifluoro-12,13-desoxyepothilone B]
Result :: 1.6

* * *

assay: in vitro; conditions: mouse, plasma
Listing of recorded half-life by entry.
Give the quantity in h, number only.

Example entries and their recorded answers appear below.
molecule	half-life / h
C/C(=C\c1csc(C)n1)[C@@H]1C[C@@H]2O[C@]2(C)CCC[C@H](C)[C@H](O)[C@@H](C)C(=O)C(C)(C)[C@@H](O)CC(=O)O1 [Compound 51, Epothilone B, reference compound]	0.95
C/C(=C\c1csc(C)n1)[C@@H]1C/C=C(/C(F)(F)F)C/C=C/[C@H](C)[C@H](O)[C@@H](C)C(=O)C(C)(C)[C@@H](O)CC(=O)O1 [Compound 29]	3.53

Kindly consider the entry below.
Query :: Look at this molecule and give its reported half-life. C/C(=C\c1csc(C)n1)[C@@H]1C/C=C(/C(F)(F)F)CCC[C@H](C)[C@H](O)[C@@H](C)C(=O)C(C)(C)[C@@H](O)CC(=O)O1 [Compound 2, 26-trifluoro-12,13-desoxyepothilone B]
Result :: 1.1

* * *

test system: Ovcar-4; assay: XTT cell growth inhibition, Ovcar-4; type: cell-based; details: Homo sapiens, OVCAR-4; Ovarian Ca; XTT tetrazonium assay; read-out: IC50 (nM), Ovcar-4
observable: IC50

Query :: Look at this compound and give its reported IC50. C/C(=C\c1csc(C)n1)[C@@H]1C/C=C(/C(F)(F)F)C/C=C/[C@H](C)[C@H](O)[C@@H](C)C(=O)C(C)(C)[C@@H](O)CC(=O)O1 [Compound 29]
Result :: 1.8 nM
